molecular target: human recombinant renin (Homo sapiens (Human)); assay: human renin activity inhibition (SensoLyte 520 Renin Assay Kit Fluorimetric); type: biochemical; conditions: 30 min preincubation at 37° C., fluorescence at 530 nm after 15 min at 37° C., read-out: IC50 (nM), inhibitory effect on human renin activity
readoutLabel: IC50

Query: // returns reported IC50 for input CO[C@H]1C[C@H](Nc2cc(C3CC3)cnc2C(=O)N(CC(C)C)[C@@H]2CNCC(c3nnc(C4COC4)o3)C2)C1 (stereo in doubt)
Response: < 10 nM

Query: // returns reported IC50 for input `[2H]C([2H])([2H])O[C@H]1C[C@H](Nc2cc(C3CC3)cnc2C(=O)N(CC(C)C)[C@@H]2CNC[C@H](c3nnco3)C2)C1`
Response: < 10 nM

Query: // returns reported IC50 for input CC(C)CN(C(=O)c1ncc(C2CC2)cc1NC1CC1)C1CNCC(C(=O)N2CCOC[C@@H]2C)C1 (stereo partly drawn)
Response: 1.4 nM

---

target: human recombinant renin (Homo sapiens (Human), UniProt P00797); assay: human renin activity inhibition (SensoLyte 520 Renin Assay Kit Fluorimetric); type: biochemical; settings: 30 min preincubation at 37° C., fluorescence at 530 nm after 15 min at 37° C., read-out: IC50 (nM), inhibitory effect on human renin activity
Sequence (P00797 67-406): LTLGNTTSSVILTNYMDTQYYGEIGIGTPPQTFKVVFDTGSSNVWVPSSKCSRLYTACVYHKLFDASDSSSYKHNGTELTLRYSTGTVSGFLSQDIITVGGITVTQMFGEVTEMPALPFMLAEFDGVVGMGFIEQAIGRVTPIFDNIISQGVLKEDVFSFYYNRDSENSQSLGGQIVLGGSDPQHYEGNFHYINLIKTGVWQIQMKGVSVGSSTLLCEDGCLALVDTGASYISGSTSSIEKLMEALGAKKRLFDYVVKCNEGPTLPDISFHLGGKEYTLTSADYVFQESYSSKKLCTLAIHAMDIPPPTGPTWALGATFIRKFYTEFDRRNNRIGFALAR
Provide the reported IC50 of each item.
The reply should contain only the number, in nM.

Query: // returns reported IC50 for input CO[C@H]1C[C@H](Nc2cc(C3CC3)cnc2C(=O)N(CC(C)C)[C@@H]2CNC[C@H](C(=O)N3CC(F)C3)C2)C1 [Compound 10]
Response: 1.8

Query: // returns reported IC50 for input CO[C@H]1C[C@H](Nc2cc(C3CC3)cnc2C(=O)N(CC(C)C)C2CNC[C@H](c3nnc(C)o3)C2)C1 (some centres unmarked) [Compound 22]
Response: 1.3

Query: // returns reported IC50 for input CO[C@H]1C[C@H](Nc2cc(C3CC3)cnc2C(=O)N(CC(C)C)C2CNCC(C(=O)N3CCC(F)(F)CC3)C2)C1 (some centres unmarked) [Compound 12]
Response: 1.6

Query: // returns reported IC50 for input CO[C@H]1C[C@H](Nc2cc(C3CC3)cnc2C(=O)N(CC(C)C)C2CNCC(C(=O)N3CCOCC3)C2)C1 (some centres unmarked) [Compound 18]
Response: 1.2

Query: // returns reported IC50 for input CO[C@H]1C[C@H](Nc2cc(C3CC3)cnc2C(=O)N(CC(C)C)C2CNC[C@H](c3nnc(C4CC(F)(F)C4)o3)C2)C1 (some centres unmarked) [Compound 24]
Response: 1

Query: // returns reported IC50 for input CO[C@H]1C[C@H](Nc2cc(C3CC3)cnc2C(=O)N(CC(C)C)C2CNCC(C(=O)N3CCOC[C@@H]3C)C2)C1 (some centres unmarked) [Compound 15]
Response: 1

---

molecular target: human recombinant renin (Homo sapiens (Human), UniProt P00797); assay: human renin activity inhibition (SensoLyte 520 Renin Assay Kit Fluorimetric); format: biochemical; conditions: 30 min preincubation at 37° C., fluorescence at 530 nm after 15 min at 37° C., read-out: IC50 (nM), inhibitory effect on human renin activity
readoutLabel: IC50 (nM)
The reply should contain only the number, in nM.

Query: // returns reported IC50 for input CO[C@H]1C[C@@H](Nc2cc(C3CC3)cnc2C(=O)N(CC(C)C)C2CNCC(C(=O)N3CCOCC3)C2)C1 (stereo partly drawn) [Compound 19]
Response: 1.5

Query: // returns reported IC50 for input CO[C@H]1C[C@H](Nc2cc(C3CC3)cnc2C(=O)N(CC(C)C)C2CNCC(C(=O)N3CCC(F)(F)C3)C2)C1 (stereo partly drawn) [Compound 11]
Response: 1.2

Query: // returns reported IC50 for input CO[C@H]1C[C@H](Nc2cc(C3CC3)cnc2C(=O)N(CC(C)C)C2CNC[C@H](c3nnc(C4CC4)o3)C2)C1 (stereo partly drawn) [Compound 23]
Response: 1.2

Query: // returns reported IC50 for input CO[C@H]1C[C@H](Nc2cc(C3CC3)cnc2C(=O)N(CC(C)C)C2CNCC(C(=O)N3CCOC[C@H]3C)C2)C1 (stereo partly drawn) [Compound 14]
Response: 1.2

Query: // returns reported IC50 for input CO[C@H]1C[C@H](Nc2cc(C3CC3)cnc2C(=O)N(CC(C)C)C2CNCC(C(=O)N3CCC(OC(F)(F)F)CC3)C2)C1 (stereo partly drawn) [Compound 13]
Response: 3.8
